Answer each item with its documented Emax.
Biological target: 5-HT2A receptor (Homo sapiens, UniProt P28223)
Construct: host or cells: HEK293
Sequence (P28223 whole entry): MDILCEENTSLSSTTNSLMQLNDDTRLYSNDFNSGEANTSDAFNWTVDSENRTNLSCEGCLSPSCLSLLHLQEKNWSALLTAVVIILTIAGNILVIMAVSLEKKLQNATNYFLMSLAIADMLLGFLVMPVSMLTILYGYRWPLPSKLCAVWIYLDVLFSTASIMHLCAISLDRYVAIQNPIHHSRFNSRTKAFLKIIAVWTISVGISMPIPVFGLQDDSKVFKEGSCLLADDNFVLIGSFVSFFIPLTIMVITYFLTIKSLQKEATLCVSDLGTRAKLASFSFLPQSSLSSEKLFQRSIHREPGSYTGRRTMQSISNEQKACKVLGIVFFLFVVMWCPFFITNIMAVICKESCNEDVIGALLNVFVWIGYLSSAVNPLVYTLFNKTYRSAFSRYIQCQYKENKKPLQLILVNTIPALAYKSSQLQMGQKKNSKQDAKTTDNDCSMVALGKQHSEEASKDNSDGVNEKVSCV
Experiment: FLIPR Ca2+ flux functional assay, agonist activity at 5-HT2A
Format: cell-based
Settings: HEK293 cells, Ca2+ flux
Give a bare numeral; the unit % is implied.

Item CCN(CC)CCc1c[nH]c2nccc(OC)c12 [Example P-26] : provide Emax
58.3

Item CCN(C)CCc1c[nH]c2ccnc(OC)c12 [Example P-37] : provide Emax
82.8

Item CCCN(CCC)CCc1c[nH]c2ccnc(OC)c12 [Example P-35] : provide Emax
82.2

Item COc1nccc2[nH]cc(CCN(C(C)C)C(C)C)c12 [Example P-36] : provide Emax
114

Item COc1cnc2[nH]cc(CCN(C(C)C)C(C)C)c2c1 [Example P-19] : provide Emax
112

Item COc1ccnc2[nH]cc(CCN(C)C)c12 [Example P-4] : provide Emax
35

Item CN(C)CCc1c[nH]c2nccc(F)c12 [Example P-32] : provide Emax
57.8

###

Target: 5-HT2A receptor (Homo sapiens)
Construct: host or cells: HEK293
Test: FLIPR Ca2+ flux functional assay, agonist activity at 5-HT2A
Type: cell-based
Settings: HEK293 cells, Ca2+ flux
Description: Activity at 5-HT2A, 5-HT2B and 5-HT2C receptors was determined using a FLIPR Ca2+ flux assay at WuXi AppTec Co. Ltd. (Hong Kong) Discovery Biology Unit according to their standard protocols. […] 10 μL of references and compounds were then transferred from the compound plate into the cell plate and the fluorescent signal was read.
resultType: Emax (%)
Give a bare numeral; the unit % is implied.

Check 5-HT2A receptor (Homo sapiens) data and give Emax for COc1ccnc2[nH]cc(CCN(C(C)C)C(C)C)c12 .
80.2

Check 5-HT2A receptor (Homo sapiens) data and give Emax for COc1cnc2[nH]cc(CCN(C)C(C)C)c2c1 .
79.8

Check 5-HT2A receptor (Homo sapiens) data and give Emax for CCN(C)CCc1c[nH]c2ccc(OC)nc12 .
79.6

###

Target: 5-HT2A receptor (Homo sapiens)
Construct: host or cells: HEK293
Test: FLIPR Ca2+ flux functional assay, agonist activity at 5-HT2A
Type: cell-based
Conditions: HEK293 cells, Ca2+ flux; read-out: 5-HT2A EC50
pEC50: −log10 of the molar value.
Label scheme for pEC50: lower range (below 6), middle range (6 to below 7), upper range (7 or more)

Hi there! Could you help me figure out the category for CCCN(CCC)CCc1c[nH]c2ccc(OC)nc12 please?
upper range

Hi there! Could you help me figure out the category for CCN(CC)CCc1c[nH]c2ccc(OC)nc12 please?
upper range

Hi there! Could you help me figure out the category for COc1ccc2[nH]cc(CCN(C(C)C)C(C)C)c2n1 please?
upper range

Hi there! Could you help me figure out the category for COc1ccc2[nH]nc(CCN(C)C(C)C)c2c1 please?
lower range

Hi there! Could you help me figure out the category for COc1ccnc2[nH]cc(CCN(C)C(C)C)c12 please?
middle range

Hi there! Could you help me figure out the category for CCN(C)CCc1c[nH]c2nccc(F)c12 please?
middle range

Hi there! Could you help me figure out the category for CCN(C)CCc1c[nH]c2ccc(OC)nc12 please?
upper range

Hi there! Could you help me figure out the category for CCN(CC)CCc1c[nH]c2nccc(OC)c12 please?
lower range

Hi there! Could you help me figure out the category for CN(C)CCc1c[nH]c2nccc(F)c12 please?
middle range

Hi there! Could you help me figure out the category for Cc1ccnc2[nH]cc(CCN(C)C)c12 please?
middle range

Hi there! Could you help me figure out the category for CCN(CC)CCc1c[nH]c2ncc(OC)cc12 please?
middle range

Hi there! Could you help me figure out the category for CN(C)CCc1n[nH]c2ccccc12 please?
lower range

Hi there! Could you help me figure out the category for CCN(CC)CCc1n[nH]c2ccc(OC)cc12 please?
lower range

Hi there! Could you help me figure out the category for CCCN(CCC)CCc1n[nH]c2cccc(OC)c12 please?
middle range

Hi there! Could you help me figure out the category for CCN(C)CCc1c[nH]c2ccnc(C)c12 please?
lower range

Hi there! Could you help me figure out the category for COc1ccc2[nH]cc(CCN(C)C(C)C)c2n1 please?
upper range

Hi there! Could you help me figure out the category for Cc1nccc2[nH]cc(CCN(C)C)c12 please?
lower range

Hi there! Could you help me figure out the category for CCN(C)CCc1n[nH]c2ccc(OC)cc12 please?
middle range

###

Molecular target: 5-HT2A receptor (Homo sapiens)
Construct: host or cells: HEK293
Experiment: FLIPR Ca2+ flux functional assay, agonist activity at 5-HT2A
Type: cell-based
Settings: HEK293 cells, Ca2+ flux; read-out: 5-HT2A EC50
Answer each item with its documented log10(EC50).
Heads up: the numbers are on a log10 scale; they represent EC50 in nM.

Item CCN(C)CCc1c[nH]c2nccc(C)c12 : provide log10(EC50)
3.01

Item COc1nccc2[nH]cc(CCN(C(C)C)C(C)C)c12 : provide log10(EC50)
1.89

Item CCN(C)CCc1c[nH]c2ccnc(OC)c12 : provide log10(EC50)
1.94

Item CN(C)CCc1c[nH]c2ncc(F)cc12 : provide log10(EC50)
1.91

Item COc1nccc2[nH]cc(CCN(C)C(C)C)c12 : provide log10(EC50)
1.89

Item COc1cnc2[nH]cc(CCN(C(C)C)C(C)C)c2c1 : provide log10(EC50)
1.86

Item CCCN(CCC)CCc1c[nH]c2ccnc(OC)c12 : provide log10(EC50)
1.90

Item CCN(CC)CCc1c[nH]c2ccnc(OC)c12 : provide log10(EC50)
2.18

Item CN(C)CCc1n[nH]c2cccc(O)c12 : provide log10(EC50)
2.90

Item COc1cnc2[nH]cc(CCN(C)C(C)C)c2c1 : provide log10(EC50)
2.04

Item COc1ccc2onc(CCN(C)C)c2c1 : provide log10(EC50)
3.01

Item CCCN(CCC)CCc1c[nH]c2ncc(OC)cc12 : provide log10(EC50)
1.93

Item COc1ccnc2[nH]cc(CCN(C(C)C)C(C)C)c12 : provide log10(EC50)
2.93

Item CCN(C)CCc1c[nH]c2nccc(OC)c12 : provide log10(EC50)
2.89

Item CCCN(CCC)CCc1n[nH]c2cccc(O)c12 : provide log10(EC50)
2.20

Item CCN(C)CCc1c[nH]c2ncc(OC)cc12 : provide log10(EC50)
1.97

Item CCCN(CCC)CCc1n[nH]c2ccc(OC)cc12 : provide log10(EC50)
3.14
